Provenance of the data: PubChem BioAssay (NCI)

# protocol_summary: NCI Yeast Anticancer Drug Screen. Data for the wt1 strain (AID 149);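 further: 0% = growth of vehicle-treated wt1 cultures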
# test_conditions: S. cerevisiae wt1 strain (SPY 50644) growth inhibition; at 33.0 µM
About 79,000 compounds went through this panel and 15% of them were active in at least one assay; those are over-represented in the sample as a whole. Calls of active or inactive are those of the source. No stated cut-off is given here; in the data, active means growth inhibition above about 70%; inactive means the rest.
Classes used: yes (1) for active, no (0) for inactive

[[record]]
compound = "CC(C)c1ccc(NC(=S)NC(=O)c2ccccc2)cc1"
cat = "no (0)"

[[record]]
compound = "C=C(Cl)COC(=O)Nc1cccc(Cl)c1"
cat = "no (0)"

[[record]]
compound = "CC(C)CN(CC(C)C)C(=O)c1ccc(Cl)c(Cl)c1"
cat = "no (0)"

[[record]]
compound = "CCCCCCC(O)CNCc1ccnc2ccc(OC)cc12 (stereo not given)"
cat = "no (0)"

[[record]]
compound = "Cc1ccc([N+]2=NC(c3ccccc3)=NN(c3ccccc3)C2)cc1"
cat = "no (0)"

[[record]]
compound = "Cc1cc(C(C)(C)C)c(OCCCN2CCOCC2)c(C(C)(C)C)c1"
cat = "no (0)"

[[record]]
compound = "Oc1[nH]c2ccccc2c1N=NC(=S)N1CCCCC1"
cat = "yes (1)"

[[record]]
compound = "Cn1c(=O)c2c(nc(N)n2C2OC(CO)C(O)C2O)n(C)c1=O (stereo not given)"
cat = "no (0)"

[[record]]
compound = "O=C1NC(=O)c2ccc([N+](=O)[O-])c3cccc1c23"
cat = "no (0)"

[[record]]
compound = "O=C1/C(=C/c2ccccc2)CCCC1CN1CCCCC1 (stereo not given)"
cat = "no (0)"

[[record]]
compound = "CC(C)OC(=O)Nc1ccc2nc(-c3cscn3)[nH]c2c1"
cat = "no (0)"

[[record]]
compound = "CCCCCCN(CCCCCC)CC(O)c1ccnc2ccc(OC)cc12 (stereo not given)"
cat = "no (0)"

[[record]]
compound = "C=C(C(=C)n1nnc(C(=O)OC)c1C(=O)OC)n1nnc(C(=O)OC)c1C(=O)OC"
cat = "no (0)"

[[record]]
compound = "C/C=C/SC(=Nc1ccccc1)Nc1ccccc1"
cat = "no (0)"

[[record]]
compound = "OC(/C=C/c1ccccc1)(Cc1cc(-c2ccccc2)n[nH]1)c1ccccc1 (stereo not given)"
cat = "no (0)"

[[record]]
compound = "C[C@]12CC[C@H](O)CC1=CC[C@@H]1C2CC[C@]2(C)C(=O)NC(=O)CC12 (stereo not given in full)"
cat = "no (0)"

[[record]]
compound = "COC(=O)CC1CCc2c(ccc3ccccc23)C1(C)C(=O)OC (stereo not given)"
cat = "no (0)"

[[record]]
compound = "c1ccc(-c2cnc3ccccc3c2)cc1"
cat = "no (0)"

[[record]]
compound = "CC(C)(C)C1=CC(=CC=C2C=CN(CCCCCCCCCCCO)C=C2)C=C(C(C)(C)C)C1=O"
cat = "yes (1)"

[[record]]
compound = "c1ccc2c(c1)sc1c3cnccc3ccc21"
cat = "no (0)"

[[record]]
compound = "O=C1c2cccnc2C(=O)C2C3C=CC(C3)C12 (stereo not given)"
cat = "yes (1)"

[[record]]
compound = "CCCC(O)C1CC(C(C)C)CCC1C (stereo not given)"
cat = "no (0)"

[[record]]
compound = "Cc1csc(=S)n1OC(=O)NC1CCCCC1"
cat = "yes (1)"

[[record]]
compound = "CC(=O)SC(C[N+](=O)[O-])c1ccccc1 (stereo not given)"
cat = "yes (1)"

[[record]]
compound = "CC(=O)Nc1ccc(/C=C/[N+](=O)[O-])cc1"
cat = "no (0)"

